Just for reference, PubChem BioAssay (Tox21) is where these values come from.

Test: qHTS assay to identify small molecule agonists of the estrogen receptor beta (ER-beta) signaling pathway - cell viability counter screen (AID 1259380); also: nearly all actives have a fitted effect of over 30% in size; also: potency is read from the fitted curve at half-maximal effect
Settings: ER-beta-bla HEK293T viability, CellTiter-Glo luminescence, 16 h; series mostly up to 92.4 µM
Records with an inconclusive call do not appear. Active and inactive are the calls of the source. Calls follow the shape of the dose curve; as a rule, active = well fitted cell-killing curve with a large enough effect in the repeat runs; inconclusive = weak or mixed curves, or effect the other way; inactive = flat fitted curve, though single readings scatter.
MEASURE: Potency

These solved cases illustrate the format of a correct answer.
[[record]]
compound = "CC(CN(C)C)CN1c2ccccc2CCc2ccccc21 (stereo not given)"
result = "26.6 µM (active)"

[[record]]
compound = "CNCC[C@H](Oc1cccc2ccccc12)c1cccs1"
result = "16.8 µM (active)"

[[record]]
compound = "Cc1cccc(Br)c1"
result = "27.4 µM (active)"

[[record]]
compound = "CCCCCCCC/C=C\\CCCCCCCC(=O)N(C)CC(=O)O"
result = "54.5 µM (active)"

[[record]]
compound = "COC(=O)NCCC[Si](OC)(OC)OC"
result = "inactive"

[[record]]
compound = "CC=O"
result = "57 µM (active)"

[[record]]
compound = "CC1CCCNC1 (stereo not given)"
result = "inactive"

[[record]]
compound = "CCCCCCS"
result = "inactive"


May I ask what Potency has been recorded for CC1CCCCC1 ?
inactive

May I ask what Potency has been recorded for CCc1cccc(C)c1 ?
inactive

May I ask what Potency has been recorded for CCOC(=O)C1=C(C)NC(C)=C(C(=O)OCC)C1c1ccccc1/C=C/C(=O)OC(C)(C)C ?
23.7 µM (active)

May I ask what Potency has been recorded for COc1ccccc1OCCNCC(O)COc1cccc2[nH]c3ccccc3c12 (stereo not given) ?
9.44 µM (active)

May I ask what Potency has been recorded for Cc1ccc(O)cn1 ?
inactive

May I ask what Potency has been recorded for C=CC/C=C/C/C=C/C/C=C/C ?
inactive

May I ask what Potency has been recorded for CCCCCCCCCCOCC(O)CN (stereo not given) ?
26.6 µM (active)
